# System: cereals
# measurementNotes: Container trials with cereals in a greenhouse, mefenpyr 1 day before herbicide application
# Assay type: in vivo
# assayContext: Summer wheat; 28 days after application; 50 g a.i./ha
Please go through the items and note down their Summer wheat observed (%).
Use % as the unit, but write only the number.

Could you share which Summer wheat observed (%) value was measured for CCc1cc(OCC(F)(F)F)cc(C)c1C1=C(O)C2(CCC3(CC2)OCC(C)O3)NC1=O (stereo not shown) ?
70

Could you share which Summer wheat observed (%) value was measured for CCCOC1CCCC2(C1)NC(=O)C(c1c(C)cc(OCC(F)(F)F)cc1C)=C2O (stereo not shown) ?
70

Could you share which Summer wheat observed (%) value was measured for CCCOC1CCCC2(C1)NC(=O)C(c1c(C)cc(OCC(F)(F)F)cc1CC)=C2O (stereo not shown) ?
100

Could you share which Summer wheat observed (%) value was measured for CCCCOC1CCCC2(C1)NC(=O)C(c1c(C)cc(OCC(F)(F)F)cc1CC)=C2O (stereo not shown) ?
40

* * *

# measurementNotes: log P determination by HPLC/LC-MS on reversed-phase column (C 18)
# Assay type: physicochemical
# assayContext: reversed-phase column (C 18), pH 2.7, LC-MS acidic range, pH 2.7, 0.1% aqueous formic acid and acetonitrile; read-out: log P (HCOOH)
quantityName: chromatographic logP
Lab note: jot down the number only; don't add units.

Could you share which chromatographic logP value was measured for Cc1ccc(OCC(F)(F)F)cc1C1=C(OC(=O)C(C)(C)C)C2(CCCC2)OC1=O ?
4.69

Could you share which chromatographic logP value was measured for CCOC(=O)C1(OC(=O)Cc2c(C)cc(OCC(F)(F)F)cc2C)CCOCC1 ?
3.78

Could you share which chromatographic logP value was measured for Cc1cc(OCC(F)(F)F)cc(C)c1CC(=O)O ?
2.51

Could you share which chromatographic logP value was measured for Cc1ccc(OCC(F)(F)F)cc1C1=C(O)C2(CCCC2)OC1=O ?
2.59

* * *

# Test system: cereals
# measurementNotes: Container trials with cereals in a greenhouse, mefenpyr 1 day before herbicide application
# Type: in vivo
# assayContext: Summer wheat; 28 days after application; 12.5 g a.i./ha
quantityName: Summer wheat observed (%)
Use % as the unit, but write only the number.

Could you share which Summer wheat observed (%) value was measured for CCc1cc(OCC(F)(F)F)cc(C)c1C1=C(O)C2(CCC3(CC2)OCCO3)NC1=O [Example I-1-a-6] ?
70

Could you share which Summer wheat observed (%) value was measured for COC1CCC2(CC1)NC(=O)C(c1c(C)cc(OCC(F)(F)F)cc1C)=C2O (stereo not shown) [Example I-1-a-25] ?
70

Could you share which Summer wheat observed (%) value was measured for CCCOC1CCCC2(C1)NC(=O)C(c1c(C)cc(OCC(F)(F)F)cc1C)=C2O (stereo not shown) [Example I-1-a-19] ?
10

Could you share which Summer wheat observed (%) value was measured for CCOC1CCCC2(CC1)NC(=O)C(c1c(C)cc(OCC(F)(F)F)cc1CC)=C2O (stereo not shown) [Example I-1-a-5] ?
65

* * *

# System: cereals
# measurementNotes: Container trials with cereals in a greenhouse, mefenpyr 1 day before herbicide application
# Assay type: in vivo
# assayContext: Summer wheat; 28 days after application; 12.5 g a.i./ha
Kindly apply the following: t if Summer wheat observed (%) is less than 90%, f in every other case.

Is 90% strictly greater than the compound's reported Summer wheat observed (%)? compound: CCc1cc(OCC(F)(F)F)cc(C)c1C1=C(O)C2(CCC3(CC2)OCC(C)O3)NC1=O (centres unmarked) [Example I-1-a-7]
t

Is 90% strictly greater than the compound's reported Summer wheat observed (%)? compound: CCCCOC1CCCC2(C1)NC(=O)C(c1c(C)cc(OCC(F)(F)F)cc1CC)=C2O (centres unmarked) [Example I-1-a-15]
t

Is 90% strictly greater than the compound's reported Summer wheat observed (%)? compound: CCc1cc(OCC(F)(F)F)cc(C)c1C1=C(O)C2(CCC(C)CC2)NC1=O (centres unmarked) [Example I-1-a-8]
f

Is 90% strictly greater than the compound's reported Summer wheat observed (%)? compound: CCc1cc(OCC(F)(F)F)cc(C)c1C1=C(O)C2(CCC(C)(OC)CC2)NC1=O (centres unmarked) [Example I-1-a-37]
t

Is 90% strictly greater than the compound's reported Summer wheat observed (%)? compound: CCCOC1CCCC2(C1)NC(=O)C(c1c(C)cc(OCC(F)(F)F)cc1CC)=C2O (centres unmarked) [Example I-1-a-14]
f
